# Test system: M18 aspartyl aminopeptidase (Plasmodium falciparum 3D7)
# Procedure summary: inhibition of P. falciparum M18 aminopeptidase – biochemical, QFRET, recombinant enzyme, primary screen (AID 1822);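 further: 0% = plate median of test compound wells and 100% = 2 mM ZnCl2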
# Measurement conditions: recombinant PfM18AAP, H-Glu-NHMec fluorogenic cleavage; at 7.35 µM; stronger effect = higher value
In all, about 290,000 compounds went through this assay and about 3,500 (1.2%) were called active. This is one part of a sample in which actives are shown more often than they occur.
Measurement name: inhibition (%)
Kindly provide the numeric value in % only, without the unit symbol.

Form field inhibition, entry `COC(=O)c1ccc(OC(=O)c2cnccn2)cc1` : 5.19

`O=C(c1cnc(Cl)c(Cl)c1)N1CCN(S(=O)(=O)c2ccc(F)cc2)CC1` yielded inhibition of -8.29

For record CC(=O)C(C)n1cnc2scc(-c3ccc(C)cc3)c2c1=O (centres undefined) the listed inhibition is 0.85

inhibition for `COC(=O)c1ccc(NC(=O)CSc2nc(N)c(NC(=O)c3ccc(Br)o3)c(=O)[nH]2)cc1` is 0.86

Record summary for `CC(=O)Nc1ccc(NC(=O)CC2CCCC2)cc1` : reported inhibition = -1.31

inhibition in this record for COc1ccc(C(CNC(=O)COc2ccc([N+](=O)[O-])cc2)N2CCCCC2)cc1 (centres undefined) : -7.22

Next:
Note to self: inhibition recorded for CC1Cc2cc(/C(O)=C3\C(=O)C(=O)N(Cc4cccnc4)C3c3ccccc3F)ccc2O1 (centres undefined) was 7.22

Noted for `COc1ccc(Br)cc1/C=N/n1c(C)nnc1C` : its inhibition reads 0.59

Value of measured inhibition for the entry OC(c1ccc(Cl)cc1)C(CN1CCOCC1)c1ccccc1 (centres undefined) : 1.27

Lab book: inhibition of `O=C(CSc1nc2ccc([N+](=O)[O-])cc2[nH]1)c1ccc(Cl)cc1` noted as 3.49

Lab note: `CCCc1nnc(NC(=O)CCC(=O)N2CCN(S(=O)(=O)c3ccc(OC)cc3)CC2)s1` gave inhibition of 3.89
